Known CC50 at 120 h of a selection of compounds
# ASSAY_PROCEDURE: Cytotoxicity against human MT4 cells assessed as reduction in cell viability incubated for 5 days by MTT assay
# Format: cell-based

q: Item COc1cc2nc([S+]([O-])CC(=O)Nc3ccc(C#N)cc3)nc(Nc3c(C)cc(/C=C/C#N)cc3C)c2cc1OC (configuration not stated) : provide CC50 at 120 h
a: > 221 µM

q: Return CC50 at 120 h (reported value) for this compound: COc1cc2nc(Nc3ccc(C#N)cc3)nc(Nc3c(C)cc(/C=C/C#N)cc3F)c2cc1OC
a: > 52 µM

q: Query CC50 at 120 h for COc1cc2nc([S+]([O-])CC(=O)Nc3ccc([N+](=O)[O-])cc3)nc(Nc3c(Cl)cc(/C=C/C#N)cc3Cl)c2cc1OC (configuration not stated)
a: 92.8 µM

q: Give CC50 at 120 h for COc1cccc(NC(=O)C[S+]([O-])c2nc(Nc3c(Cl)cc(/C=C/C#N)cc3Cl)c3cc(OC)c(OC)cc3n2)c1 (configuration not stated)
a: ≥ 167 µM

q: Note CC50 at 120 h for the compound shown: COc1cc2nc(Nc3ccc(C#N)cc3)nc(Nc3c(C)cc(/C=C/C#N)cc3C)c2cc1OC
a: 10.2 µM

Next:
q: Report CC50 at 120 h for COc1cc2nc(Nc3ccc(C#N)cc3)nc(Nc3c(Cl)cc(/C=C/C#N)cc3Cl)c2cc1OC
a: 9.92 µM

q: Tell me measured CC50 at 120 h for COc1cc2nc([S+]([O-])CC(=O)Nc3cccc(C(F)(F)F)c3)nc(Nc3c(Cl)cc(/C=C/C#N)cc3Cl)c2cc1OC (configuration not stated) please.
a: 21.8 µM

q: Note down CC50 at 120 h recorded for COc1cc2nc([S+]([O-])CC(=O)Nc3ccc(C(F)(F)F)cc3)nc(Nc3c(C)cc(/C=C/C#N)cc3C)c2cc1OC (configuration not stated)
a: 52.2 µM

====

CC50 at 120 h values by entry
# ASSAY_PROCEDURE: Cytotoxicity against human MT4 cells assessed as reduction in cell viability incubated for 5 days by MTT assay
# Assay type: cell-based
Numbers only here, please. The scale is µM.

q: Note CC50 at 120 h for the molecule shown: COc1cc2nc([S+]([O-])CC(=O)Nc3ccc(C(F)(F)F)cc3)nc(Nc3c(Cl)cc(/C=C/C#N)cc3Cl)c2cc1OC (centres undefined)
a: 22

q: Identify measured CC50 at 120 h associated with COc1cc2nc(SCC(=O)Nc3ccc(C)cc3)nc(Nc3c(Cl)cc(/C=C/C#N)cc3Cl)c2cc1OC
a: 2.54

q: Quote CC50 at 120 h reported for COc1cc2nc(Nc3ccc(C#N)cc3)nc(Nc3c(F)cc(/C=C/C#N)cc3F)c2cc1OC please.
a: 6.4

====

# Test system: Human immunodeficiency virus 1
# ASSAY_PROCEDURE: Antiviral activity against HIV1 harbouring NNRTI K103N
# Type: functional, organism-based
pEC50: −log10 of the molar value.
MEASURE_NAME: pEC50

q: Fill in reported pEC50 for this entry: O=C(CSc1nnc(Br)n1-c1ccc(C2CC2)c2ccccc12)Nc1ccc(C(=O)O)cc1Cl
a: > 8.52

====

Reported pEC50 values follow for various compounds
# System: Human immunodeficiency virus 1
# ASSAY_PROCEDURE: Antiviral activity against HIV1 3B harbouring NNRTI K103N mutant infected in human MT4 cells assessed as virus-induced cytopathic effect incubated for 5 days by MTT assay
# Format: functional, organism-based
# TEST_CONTEXT: Human immunodeficiency virus 1, 3B, MT4, 120 h
Quick note: pEC50 means taking -log10 of the concentration in moles per liter.

Consider the following illustrative entries.
q: Input COc1cc2nc(SCC(=O)Nc3ccc([N+](=O)[O-])cc3)nc(Nc3c(C)cc(/C=C/C#N)cc3C)c2cc1OC , output reported pEC50.
a: 6.45

q: Tell me measured pEC50 for COc1cc2nc([S+]([O-])CC(=O)Nc3cccc(C(F)(F)F)c3)nc(Nc3c(Cl)cc(/C=C/C#N)cc3Cl)c2cc1OC (centres undefined) please.
a: 6.20

q: Give reported pEC50 value for COc1cccc(NC(=O)C[S+]([O-])c2nc(Nc3c(Cl)cc(/C=C/C#N)cc3Cl)c3cc(OC)c(OC)cc3n2)c1 (centres undefined)
a: 6.33

Could you now look at the following compound, please?
q: Consider the compound Cc1cc(C#N)cc(C)c1Oc1nc(Nc2ccc(C#N)cc2)nc(N)c1Br and give its recorded pEC50.
a: 8.43

====

# ASSAY_PROCEDURE: Cytotoxicity against human MT4 cells assessed as reduction in cell viability incubated for 5 days by MTT assay
# Assay type: cell-based
Measured CC50 at 120 h, listed per entry.

Some molecules with recorded CC50 at 120 h:
q: Input COc1cc2nc([S+]([O-])CC(=O)Nc3ccc(F)cc3)nc(Nc3c(C)cc(/C=C/C#N)cc3C)c2cc1OC (centres undefined) , output reported CC50 at 120 h.
a: 27.4 µM

q: Please indicate CC50 at 120 h recorded for COc1cc2nc([S+]([O-])CC(=O)Nc3cccc(F)c3)nc(Nc3c(Cl)cc(/C=C/C#N)cc3Cl)c2cc1OC (centres undefined)
a: 9.55 µM

q: Provide CC50 at 120 h value for the following molecule: COc1cc2nc([S+]([O-])CC(=O)Nc3c(C)cc(C)cc3C)nc(Nc3c(Cl)cc(/C=C/C#N)cc3Cl)c2cc1OC (centres undefined)
a: 8.87 µM

Would you kindly look at the next entry?
q: Retrieve CC50 at 120 h measured for COc1ccccc1NC(=O)C[S+]([O-])c1nc(Nc2c(Cl)cc(/C=C/C#N)cc2Cl)c2cc(OC)c(OC)cc2n1 (centres undefined) and print it.
a: > 204 µM

====

# ASSAY_PROCEDURE: Stability in human liver microsomes assessed as intrinsic clearance
# Assay type: ADME, Microsome
# TEST_CONTEXT: read-out: CLH
MEASURE_NAME: microsomal CLint

q: Kindly indicate its recorded microsomal CLint. Item: COc1cc2nc([S+]([O-])CC(=O)Nc3ccc(C#N)cc3)nc(Nc3c(C)cc(/C=C/C#N)cc3C)c2cc1OC (stereo unspecified)
a: 8.45 µL/min/mg

====

# ASSAY_PROCEDURE: Stability in rat liver microsomes assessed as half life
# Assay type: ADME, Microsome
MEASURE_NAME: half-life (h)
Write down the numeric answer in h and omit the unit.

q: Name the recorded half-life of the item COc1cc2nc([S+]([O-])CC(=O)Nc3ccc(C#N)cc3)nc(Nc3c(C)cc(/C=C/C#N)cc3C)c2cc1OC (stereo unspecified) in your answer.
a: 1.35

====

# ASSAY_PROCEDURE: Cytotoxicity against human MT4 cells assessed as reduction in cell viability incubated for 5 days by MTT assay
# Assay type: cell-based
The following compounds are listed with their measured CC50 at 120 h values.

For orientation, consider the following solved cases.
q: Give the reported CC50 at 120 h for this compound. COc1cc2nc(SCC(=O)Nc3ccc(Cl)cc3)nc(Nc3c(Cl)cc(/C=C/C#N)cc3Cl)c2cc1OC
a: 29.5 µM

q: Please supply the value of reported CC50 at 120 h for the item Cc1cc(C#N)cc(C)c1Oc1nc(Nc2ccc(C#N)cc2)nc(N)c1Br
a: > 4.59 µM

q: Identify measured CC50 at 120 h associated with COc1cc2nc([S+]([O-])CC(=O)Nc3cccc([N+](=O)[O-])c3)nc(Nc3c(Cl)cc(/C=C/C#N)cc3Cl)c2cc1OC (stereo not drawn)
a: ≥ 83.2 µM

q: Please report the measured CC50 at 120 h for COc1cc2nc([S+]([O-])CC(=O)Nc3ccc(Cl)cc3)nc(Nc3c(Cl)cc(/C=C/C#N)cc3Cl)c2cc1OC (stereo not drawn)
a: 14.4 µM

q: // Input: COc1cc2nc([S+]([O-])CC(=O)Nc3ccccc3[N+](=O)[O-])nc(Nc3c(Cl)cc(/C=C/C#N)cc3Cl)c2cc1OC (stereo not drawn) . Output its CC50 at 120 h only.
a: > 199 µM

q: Supply measured CC50 at 120 h of COc1cc2nc(SCC(=O)Nc3ccc(F)cc3)nc(Nc3c(C)cc(/C=C/C#N)cc3C)c2cc1OC in your reply.
a: ≥ 150 µM

q: Find the measured CC50 at 120 h of COc1cc2nc(SCC(=O)Nc3ccc(S(N)(=O)=O)cc3)nc(Nc3c(Cl)cc(/C=C/C#N)cc3Cl)c2cc1OC and report it.
a: 116 µM

Consider now this further compound.
q: Provide CC50 at 120 h value for the following compound: COc1ccc(NC(=O)CSc2nc(Nc3c(C)cc(/C=C/C#N)cc3C)c3cc(OC)c(OC)cc3n2)cc1
a: > 225 µM
